- TESTED TARGET: T1, Extracellular domain (ECD) of ROR1 fused to human Fc region (UniProt Q01973 30-406, limits assumed)
- T1 construct: extracellular domain; also called ROR1-Fc; ROR1-FC; not shown: human Fc region
- T1 sequence (Q01973 30-406 limits assumed): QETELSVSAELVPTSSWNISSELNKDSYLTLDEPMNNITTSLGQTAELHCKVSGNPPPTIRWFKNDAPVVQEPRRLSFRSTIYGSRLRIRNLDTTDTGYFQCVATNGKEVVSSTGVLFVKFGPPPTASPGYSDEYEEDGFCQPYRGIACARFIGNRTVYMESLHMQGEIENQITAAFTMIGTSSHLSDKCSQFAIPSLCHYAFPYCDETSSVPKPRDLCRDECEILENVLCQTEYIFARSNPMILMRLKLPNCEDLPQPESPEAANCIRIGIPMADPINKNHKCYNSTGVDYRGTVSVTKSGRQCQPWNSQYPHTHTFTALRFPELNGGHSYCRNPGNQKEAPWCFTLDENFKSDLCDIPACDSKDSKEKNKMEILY
- ASSAY METHOD TEXT: SPR, Biacore 3000; ROR1 ECD-human Fc on CM5 chip, antibody in solution
- Description: Different concentrations of humanized antibodies were injected in solution phase and data was analyzed using BIAevaluation to calculate Kd of the antibodies.
Quick rule for you: Kd under 4 nM gets label 1, anything else gets label 0.

State whether 4 nM exceeds Kd recorded for Clone 16 (antibody, V domains shown, Variable regions fused to mouse constant regions (chimeric mouse IgG1 mAb) for SPR; also called hROR1 VH_16 / hROR1 VL_16) VH: EVQLVESGGGLVQPGGSLRLSCAASGFTFSSYAMSWVRQAPGKGLEWVASISRGGTTYYDPKFQDRATISADNSKNTAYLQMNSLRAEDTAVYYCGRYDYDGYYAMDYWGQGTLVTVSS VL: DIQMTQSPSSLSASVGDRVTITCKASPDINSYLNWYQQKPGKAPKVLIYRANRLVDGVPSRFSGSGSGTDYTLTISSLQPEDFATYYCLQYDEFPYTFGQGTKVEIK . label 1

I'd appreciate it if you could check whether Hum ROR1_14VH_(G4S)3x_VL_16 (antibody, mouse IgG1, V domains shown, The name reads as an scFv with a (G4S)3 linker; The method text says variable regions were fused to mouse constant regions (chimeric mouse IgG1); VH/VL are tied by the numbers in the name) VH: EVQLVESGGGLVQPGGSLRLSCATSGFTFSSYAMSWMRQAPGKGLEWVASISRGGTTYYADSVKGRFTISVDKSKNTLYLQMNSLRAEDTAVYYCGRYDYDGYYAMDYWGQGTLVTVSS VL: DIQMTQSPSSLSASVGDRVTITCKASPDINSYLNWYQQKPGKAPKVLIYRANRLVDGVPSRFSGSGSGTDYTLTISSLQPEDFATYYCLQYDEFPYTFGQGTKVEIK has Kd smaller than 4 nM. label 0

Does the reported Kd of Clone 18 (antibody, V domains shown, Variable regions fused to mouse constant regions (chimeric mouse IgG1 mAb) for SPR; also called hROR1 VH_18 / hROR1 VL_18) VH: EVQLVESGGGLVQPGGSLRLSCSASGFTFSSYAMSWVRQVPGKGLVWISSISRGGTTYYADSVRGRFIISRDNAKNTLYLEMNNLRGEDTAVYYCARYDYDGYYAMDYWGQGTLVTVSS VL: DIQLTQSPDSLAVSLGERATINCKASPDINSYLSWYQQRPGQPPRLLIHRANRLVDGVPDRFSGSGFGTDFTLTITSLQAEDVAIYYCLQYDEFPYTFGQGTKLEIK stay below 4 nM? label 0

Lab note: Kd threshold 4 nM. Does this binder come in strictly under it? Hum ROR1_07VH_(G4S)3x_VL_05 (antibody, mouse IgG1, V domains shown, The name reads as an scFv with a (G4S)3 linker; The method text says variable regions were fused to mouse constant regions (chimeric mouse IgG1); VH/VL are tied by the numbers in the name) VH: EVQLVESGGGLVQPGGSLRLSCAASGFTFSSYAIIWVRQAPGKGLEWVARISRGGTTRYADSVKGRFTISADTSKETAYLQMNSLRAEDTAVYYCGRYDYDGYYAMDYWGQGTLVTVSS VL: DIQMTQSPSSLSASVGDRVTITCKASPDINSYLSWYQQKPGKAPKLLIYRANRLVDGVPSRFSGSGSGTDFTLTISSLQPEDIATYYCLQYDEFPYTFGQGTKLEIK label 0

Please state whether Kd is below 4 nM for Hum_design_14_variant5 (antibody, V domains shown, Variable regions fused to mouse constant regions (chimeric mouse IgG1 mAb) for SPR; also called hROR1 VH_14-5 / hROR1 VL_14-5) VH: EVQLVESGGGLVQPGGSLRLSCATSGFTFSSYAMSWMRKAPGKGLEYVASISRGGTTYYADSVKGRFTISVDKSKNTLYLQMNSLRAEDTAVYYCGRYDYDGYYAMDYWGQGTLVTVSS VL: DIQMTQSPSSLSASVGDRVTITCKASPDINSYLNWYQQKPGKAPKLLIYRANRLVDGVPSRFSGSGSGTDYTLTISSLQPEDFATYYCLQYDEFPYTFGAGTKVEIK label 0

Strictly below 4 nM: is that where Kd of Hum ROR1_18VH_(G4S)3x_VL_07 (antibody, mouse IgG1, V domains shown, The name reads as an scFv with a (G4S)3 linker; The method text says variable regions were fused to mouse constant regions (chimeric mouse IgG1); VH/VL are tied by the numbers in the name) VH: EVQLVESGGGLVQPGGSLRLSCSASGFTFSSYAMSWVRQVPGKGLVWISSISRGGTTYYADSVRGRFIISRDNAKNTLYLEMNNLRGEDTAVYYCARYDYDGYYAMDYWGQGTLVTVSS VL: DIQMTQSPSSLSASVGDRVTITCRASPDINSYVAWYQQKPGKAPKLLIYRANFLESGVPSRFSGSRSGTDFTLTISSLQPEDFATYYCLQYDEFPYTFGQGTKVEIK sits? label 1

Hello, I'm reviewing records and need to know if Kd of Hum ROR1_18VH_(G4S)3x_VL_16 (antibody, mouse IgG1, V domains shown, The name reads as an scFv with a (G4S)3 linker; The method text says variable regions were fused to mouse constant regions (chimeric mouse IgG1); VH/VL are tied by the numbers in the name) VH: EVQLVESGGGLVQPGGSLRLSCSASGFTFSSYAMSWVRQVPGKGLVWISSISRGGTTYYADSVRGRFIISRDNAKNTLYLEMNNLRGEDTAVYYCARYDYDGYYAMDYWGQGTLVTVSS VL: DIQMTQSPSSLSASVGDRVTITCKASPDINSYLNWYQQKPGKAPKVLIYRANRLVDGVPSRFSGSGSGTDYTLTISSLQPEDFATYYCLQYDEFPYTFGQGTKVEIK is below 4 nM. Could you check? label 1

Is 4 nM strictly greater than the binder's reported Kd? binder: Hum ROR1_07VH_(G4S)3x_VL_18 (antibody, mouse IgG1, V domains shown, The name reads as an scFv with a (G4S)3 linker; The method text says variable regions were fused to mouse constant regions (chimeric mouse IgG1); VH/VL are tied by the numbers in the name) VH: EVQLVESGGGLVQPGGSLRLSCAASGFTFSSYAIIWVRQAPGKGLEWVARISRGGTTRYADSVKGRFTISADTSKETAYLQMNSLRAEDTAVYYCGRYDYDGYYAMDYWGQGTLVTVSS VL: DIQLTQSPDSLAVSLGERATINCKASPDINSYLSWYQQRPGQPPRLLIHRANRLVDGVPDRFSGSGFGTDFTLTITSLQAEDVAIYYCLQYDEFPYTFGQGTKLEIK label 0

The values you see were collected from patent US20260035432A1.
